Source of measurements: patent US8871753B2

- STUDY_TARGET: TYK2 (Homo sapiens)
- Sequence (P29597 whole entry): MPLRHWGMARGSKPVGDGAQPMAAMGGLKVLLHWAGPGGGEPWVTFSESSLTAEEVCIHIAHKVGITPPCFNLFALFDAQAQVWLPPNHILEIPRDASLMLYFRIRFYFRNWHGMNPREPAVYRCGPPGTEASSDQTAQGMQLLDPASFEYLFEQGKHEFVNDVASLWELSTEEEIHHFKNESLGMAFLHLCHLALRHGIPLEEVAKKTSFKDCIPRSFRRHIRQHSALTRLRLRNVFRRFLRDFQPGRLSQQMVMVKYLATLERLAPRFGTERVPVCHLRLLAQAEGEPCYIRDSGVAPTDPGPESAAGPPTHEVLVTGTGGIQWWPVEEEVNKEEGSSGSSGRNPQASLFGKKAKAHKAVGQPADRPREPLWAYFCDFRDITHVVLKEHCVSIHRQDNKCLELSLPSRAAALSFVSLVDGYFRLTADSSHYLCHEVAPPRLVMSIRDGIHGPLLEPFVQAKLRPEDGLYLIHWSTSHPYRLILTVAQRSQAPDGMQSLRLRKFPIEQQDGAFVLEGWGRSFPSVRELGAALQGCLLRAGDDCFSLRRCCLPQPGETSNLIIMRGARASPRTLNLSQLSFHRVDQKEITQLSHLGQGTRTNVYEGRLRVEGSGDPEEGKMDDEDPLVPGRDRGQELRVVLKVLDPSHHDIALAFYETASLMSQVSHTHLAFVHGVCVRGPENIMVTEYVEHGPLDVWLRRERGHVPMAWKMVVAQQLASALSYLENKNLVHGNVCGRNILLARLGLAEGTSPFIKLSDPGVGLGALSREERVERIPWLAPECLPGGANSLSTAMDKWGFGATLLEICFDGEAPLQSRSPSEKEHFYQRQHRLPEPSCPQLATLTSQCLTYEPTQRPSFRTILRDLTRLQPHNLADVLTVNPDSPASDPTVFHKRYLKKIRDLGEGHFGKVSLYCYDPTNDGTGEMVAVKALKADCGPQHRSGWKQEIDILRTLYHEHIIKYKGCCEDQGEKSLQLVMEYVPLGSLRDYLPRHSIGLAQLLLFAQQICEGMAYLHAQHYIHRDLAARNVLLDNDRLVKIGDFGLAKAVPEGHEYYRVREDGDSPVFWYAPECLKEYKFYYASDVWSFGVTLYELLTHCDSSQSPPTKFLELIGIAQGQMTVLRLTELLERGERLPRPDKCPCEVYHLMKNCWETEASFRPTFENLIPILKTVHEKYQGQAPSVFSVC
- TEST: TYK2 kinase inhibition (Table A1)
- Format: biochemical
Counter-ions that a name gives are not always drawn.
READOUT_KIND: IC50 (nM)

A: O=C(CC1CCN(c2ncc(F)cn2)CC1)Nc1ccc2cc1CCc1cncc(c1)Nc1ncc(Cl)c(n1)N2 [Example A169, tris(trifluoroacetate)]
B: CS(=O)(=O)N1CCC(CC(=O)Nc2ccc3cc2CCc2cncc(c2)Nc2ncc(Cl)c(n2)N3)C1 (stereo not shown) [Example A91, bis(trifluoroacetate)]
// pick min by IC50: A , B # respond with the chosen item's label B
(B: 14 nM, A: 319 nM)

P: O=C(CC1CCN(S(=O)(=O)c2cccnc2)CC1)Nc1ccc2cc1CCc1cncc(c1)Nc1ncc(Cl)c(n1)N2 [Example A202, tris(trifluoroacetate)]
Q: O=C(Nc1ccc2cc1CCc1cccc(c1)Nc1ncc(Cl)c(n1)N2)C1CCCN(C(=O)Nc2ccccc2)C1 (stereo not shown) [Example A50, trifluoroacetate]
Select one: P or Q . Criterion: greater recorded IC50. # respond with the chosen item's label P
(P: 150 nM, Q: 21 nM)

====

- STUDY_TARGET: TYK2 (Homo sapiens)
- TEST: TYK2 kinase inhibition (Table A1)
- Type: biochemical
pIC50: −log10 of the molar value. Structures can show the parent of a compound that is named as a salt.
READOUT_KIND: pIC50

O=C(Nc1ccc2cc1CCc1cccc(c1)Nc1ncc(Cl)c(n1)N2)[C@@H]1CCCN1C(=O)Nc1ccccc1 [Example A69, trifluoroacetate]
7.41

I: O=C(CC1CCN(C(=O)Nc2ccccc2F)CC1)Nc1ccc2cc1CCc1cncc(c1)Nc1ncc(Cl)c(n1)N2 [Example A146, bis(trifluoroacetate)]
II: O=C(CN1CCNCC1)Nc1ccc2cc1CCc1cncc(c1)Nc1ncc(Cl)c(n1)N2
III: NCCC(=O)Nc1ccc2cc1CCc1cccc(c1)Nc1ncc(Cl)c(n1)N2 [Example A108, bis(trifluoroacetate)]
Arrange these 3 molecules in increasing order of pIC50. Return the labels ranked in the requested order, please. II, III, I

====

- STUDY_TARGET: Recombinant Human Anaplastic Lymphoma Kinase (Homo sapiens, UniProt Q9UM73)
- Construct: purchased Invitrogen, Carlsbad, Calif
- Sequence (Q9UM73 19-1620): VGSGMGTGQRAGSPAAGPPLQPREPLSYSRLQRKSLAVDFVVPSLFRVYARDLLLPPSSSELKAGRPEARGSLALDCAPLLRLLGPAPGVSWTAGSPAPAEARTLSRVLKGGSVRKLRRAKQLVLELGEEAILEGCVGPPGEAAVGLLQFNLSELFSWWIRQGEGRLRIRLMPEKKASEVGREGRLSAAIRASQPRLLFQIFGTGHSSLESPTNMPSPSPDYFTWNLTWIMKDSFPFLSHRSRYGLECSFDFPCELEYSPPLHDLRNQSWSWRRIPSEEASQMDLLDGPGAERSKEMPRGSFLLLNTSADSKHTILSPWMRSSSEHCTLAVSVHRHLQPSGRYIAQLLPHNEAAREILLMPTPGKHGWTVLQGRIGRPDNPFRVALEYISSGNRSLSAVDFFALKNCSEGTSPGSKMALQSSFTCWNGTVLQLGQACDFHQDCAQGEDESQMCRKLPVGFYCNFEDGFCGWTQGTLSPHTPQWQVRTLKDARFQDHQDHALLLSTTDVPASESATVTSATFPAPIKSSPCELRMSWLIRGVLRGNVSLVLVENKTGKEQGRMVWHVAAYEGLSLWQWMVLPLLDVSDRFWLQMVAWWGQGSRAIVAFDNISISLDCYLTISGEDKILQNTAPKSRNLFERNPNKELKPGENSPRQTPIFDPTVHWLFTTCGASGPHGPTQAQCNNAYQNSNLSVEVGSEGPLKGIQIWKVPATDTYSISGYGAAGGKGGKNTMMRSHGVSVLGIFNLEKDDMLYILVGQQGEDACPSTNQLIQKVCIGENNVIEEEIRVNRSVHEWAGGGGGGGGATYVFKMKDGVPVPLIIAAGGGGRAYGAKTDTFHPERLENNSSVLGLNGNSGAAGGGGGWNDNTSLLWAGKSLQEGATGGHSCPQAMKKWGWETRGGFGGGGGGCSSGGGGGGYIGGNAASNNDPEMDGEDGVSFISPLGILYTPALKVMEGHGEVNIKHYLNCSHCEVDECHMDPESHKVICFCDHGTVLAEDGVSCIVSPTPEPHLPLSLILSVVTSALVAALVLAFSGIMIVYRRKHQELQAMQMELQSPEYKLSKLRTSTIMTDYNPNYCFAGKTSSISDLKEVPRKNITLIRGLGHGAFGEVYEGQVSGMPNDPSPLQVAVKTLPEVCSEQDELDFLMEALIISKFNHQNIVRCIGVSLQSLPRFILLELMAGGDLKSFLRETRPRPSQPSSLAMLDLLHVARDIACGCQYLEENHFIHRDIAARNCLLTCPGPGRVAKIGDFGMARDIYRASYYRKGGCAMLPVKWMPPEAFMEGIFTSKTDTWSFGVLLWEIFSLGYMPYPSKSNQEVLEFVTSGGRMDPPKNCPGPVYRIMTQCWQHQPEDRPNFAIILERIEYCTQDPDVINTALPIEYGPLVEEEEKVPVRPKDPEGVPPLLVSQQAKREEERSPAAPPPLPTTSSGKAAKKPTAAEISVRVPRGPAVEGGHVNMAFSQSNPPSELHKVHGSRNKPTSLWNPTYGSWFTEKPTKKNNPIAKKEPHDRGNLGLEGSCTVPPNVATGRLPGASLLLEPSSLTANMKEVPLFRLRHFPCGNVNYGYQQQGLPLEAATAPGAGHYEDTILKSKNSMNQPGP
- TEST: ALK HTRF kinase assay
- Format: biochemical
- RECORDED_CONDITIONS: compound at 500 nM or 1 mM; 90 μM ATP
Where a name gives a salt, the structure may show the parent alone.
READOUT_KIND: ALK % of inhibition at a concentration of 500 nM or 1 mM (%)

CC(C)NC(=O)N1CCC(CC(=O)Nc2ccc3cc2CCc2cccc(c2)Nc2ncc(Cl)c(n2)N3)CC1 [Example A84, trifluoroacetate]
31

a: CC(C)(C)NC(=O)N1CCC(CC(=O)Nc2ccc3cc2CCc2cccc(c2)Nc2ncc(Cl)c(n2)N3)CC1 [Example A85, trifluoroacetate]
b: O=C(COc1cc2cc(c1)Nc1nc(ncc1Cl)Nc1cccc(c1)CC2)Nc1ccccc1 [Example A24, trifluoroacetate]
c: O=C(Nc1ccc2cc1CCc1cccc(c1)Nc1ncc(Cl)c(n1)N2)[C@@H]1CCN(C(=O)Nc2ccccc2)C1 [Example A54, trifluoroacetate]
d: O=C(CC1CCN(C(=O)c2ccc(F)cc2F)CC1)Nc1ccc2cc1CCc1cncc(c1)Nc1ncc(Cl)c(n1)N2 [Example A194, bis(trifluoroacetate)]
List from greatest to least ALK % of inhibition at a concentration of 500 nM or 1 mM. Return the labels ranked in the requested order, please. c, d, a, b
(c: 54%, d: 31%, a: 19%, b: 11%)

A: CC(Oc1ccc2cc1CCc1cccc(c1)Nc1ncc(Cl)c(n1)N2)C(=O)Nc1ccccc1 (stereo not drawn) [Example A16, trifluoroacetate]
B: COc1cc(C(=O)N2CCC(CC(=O)Nc3ccc4cc3CCc3cncc(c3)Nc3ncc(Cl)c(n3)N4)CC2)on1 [Example A215, bis(trifluoroacetate)]
Select one: A or B . Criterion: greater recorded ALK % of inhibition at a concentration of 500 nM or 1 mM. # respond with the chosen item's label B

P: O=C(CCC1CCNCC1)Nc1ccc2cc1CCc1cccc(c1)Nc1ncc(Cl)c(n1)N2 [Example A116, bis(trifluoroacetate)]
Q: O=C(CC1CCN(c2nc3ccccc3s2)CC1)Nc1ccc2cc1CCc1cncc(c1)Nc1ncc(Cl)c(n1)N2 [Example A157, tris(trifluoroacetate)]
Select one: P or Q . Criterion: greater recorded ALK % of inhibition at a concentration of 500 nM or 1 mM. # respond with the chosen item's label P
